# reported pKd; entries follow
# Target System: T1, cyno CD137 (cynomolgus monkey, UniProt Q07011 24-186 (human entry), limits assumed)
# T1 construct: also called cynomolgus monkey CD137
# T1 chain: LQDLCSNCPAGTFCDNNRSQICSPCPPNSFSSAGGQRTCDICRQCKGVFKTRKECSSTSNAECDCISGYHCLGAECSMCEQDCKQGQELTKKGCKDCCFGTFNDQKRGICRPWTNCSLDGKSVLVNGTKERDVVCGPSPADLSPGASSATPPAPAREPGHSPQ
# Assay Overview: SPR Biacore T200, IgG captured on protein A, 25 C;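 note: antigens diluted in ACES running buffer at pH 7.4 were flowed over antibodies held on a CM3 chip bearing amine-coupled protein A, with buffer alone serving as blank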
// field semantics: pKd = negative decimal log of concentration (mol/L)

[
  {
    "Binder": "dBBDu183/L072 (antibody, V domains shown, IgG format; also called H183L072) VH: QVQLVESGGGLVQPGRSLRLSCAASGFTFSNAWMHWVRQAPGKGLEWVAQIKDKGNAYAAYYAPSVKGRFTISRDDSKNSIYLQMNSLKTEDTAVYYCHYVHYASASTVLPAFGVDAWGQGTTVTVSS VL: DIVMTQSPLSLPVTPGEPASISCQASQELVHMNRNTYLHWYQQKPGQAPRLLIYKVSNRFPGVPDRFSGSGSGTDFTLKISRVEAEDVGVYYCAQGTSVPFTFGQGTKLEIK",
    "pKd": 5.31
  }
]

Now look at this entry.
Problem: For the binder dBBDu186/L096 (antibody, V domains shown, IgG format; constant regions not specified) VH: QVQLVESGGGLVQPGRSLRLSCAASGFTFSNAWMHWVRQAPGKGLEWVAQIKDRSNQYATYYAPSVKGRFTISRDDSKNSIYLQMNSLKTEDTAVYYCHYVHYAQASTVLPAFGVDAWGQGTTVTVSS VL: DIVMTQSPLSLPVTPGEPASISCRTSQELVHINRYIFLHWYQQKPGQAPRLLIYKVYNRFQGVPDRFSGSGSGTDFTLKISRVEAEDVGVYYCAQGTSVPYTFGQGTKLEIK , give its measured pKd value.
Solution: 3.69
